experiment: Cytotoxicity against human MRC5 cells assessed as reduction in cell viability measured after 24 hrs by resazurin dye based fluorimetric assay
experimental.readout: CC50 at 24 h (µM)
State just the number; it will be interpreted in µM.

CCOC(=O)[C@H](CC(C)C)NP(=O)(CCCC(=O)N(C)OCCCc1ccccc1)N[C@@H](CC(C)C)C(=O)OCC | 23.1
CCOC(=O)[C@H](CC(C)C)NP(=O)(CCCC(=O)N(C)OCCCCc1ccccc1)N[C@@H](CC(C)C)C(=O)OCC | 7.23
CCOC(=O)[C@H](CC(C)C)NP(=O)(CCCC(=O)N(C)OCc1ccc(C(C)C)cc1)N[C@@H](CC(C)C)C(=O)OCC | 7.22

// query Given the compound CCOC(=O)[C@H](CC(C)C)NP(=O)(CCCC(=O)N(C)OCc1ccc(-c2ccccc2)cc1)N[C@@H](CC(C)C)C(=O)OCC , what is its reported CC50 at 24 h?
// result 5.94

// query Find the recorded CC50 at 24 h belonging to CCOC(=O)[C@H](CC(C)C)NP(=O)(CCCC(=O)N(C)OCc1ccc2ccccc2c1)N[C@@H](CC(C)C)C(=O)OCC and report it.
// result 5.47

// query Which CC50 at 24 h value is on record for CCOC(=O)[C@H](CC(C)C)NP(=O)(CCCC(=O)N(C)OCc1ccc(Cl)cc1)N[C@@H](CC(C)C)C(=O)OCC ?
// result 18.4

----------
Test system: Plasmodium falciparum
experiment: Antimalarial activity against Chloroquine-resistant Plasmodium falciparum K1 measured after 72 hrs by malstat/NBT dye based assay
Format: functional, organism-based
condition: K1, 72 h
experimental.readout: IC50 (µM)
# number only, unit µM dropped from output

Below, each entry is followed by its recorded IC50 result.
CCOC(=O)[C@H](CC(C)C)NP(=O)(CCCC(=O)N(C)OCc1ccc(Cl)cc1)N[C@@H](CC(C)C)C(=O)OCC | 7.12
CCOC(=O)[C@H](CC(C)C)NP(=O)(CCCC(=O)N(C)OCCCCc1ccccc1)N[C@@H](CC(C)C)C(=O)OCC | 6.72
CCOC(=O)[C@H](CC(C)C)NP(=O)(CCCC(=O)N(C)OCc1ccc(-c2ccccc2)cc1)N[C@@H](CC(C)C)C(=O)OCC | 5.25
CCOC(=O)[C@H](CC(C)C)NP(=O)(CCCC(=O)N(C)OCc1ccc2ccccc2c1)N[C@@H](CC(C)C)C(=O)OCC | 6.22
CCOC(=O)[C@H](CC(C)C)NP(=O)(CCCC(=O)N(C)O)N[C@@H](CC(C)C)C(=O)OCC | 4.83

// query What value of IC50 has been reported for the following compound? CCOC(=O)[C@H](CC(C)C)NP(=O)(CCCC(=O)N(C)OCc1ccc(C(C)C)cc1)N[C@@H](CC(C)C)C(=O)OCC
// result 5.28

// query Any idea what its IC50 is? The compound is CCOC(=O)[C@H](CC(C)C)NP(=O)(CCCC(=O)N(C)OCCCc1ccccc1)N[C@@H](CC(C)C)C(=O)OCC
// result 8.93

// query Which IC50 reading was recorded for the compound CCOC(=O)[C@H](CC(C)C)NP(=O)(CCCC(=O)N(C)OCc1ccccc1)N[C@@H](CC(C)C)C(=O)OCC ?
// result 4.22

----------
experiment: Selectivity index, ratio of CC50 for human MRC5 cells to IC50 for Chloroquine-resistant Plasmodium falciparum K1
Assay type: toxicity
condition: read-out: Ratio CC50/IC50
experimental.readout: selectivity ratio

These solved cases illustrate the format of a correct answer.
CCOC(=O)[C@H](CC(C)C)NP(=O)(CCCC(=O)N(C)O)N[C@@H](CC(C)C)C(=O)OCC | > 20
CCOC(=O)[C@H](CC(C)C)NP(=O)(CCCC(=O)N(C)OCCCCc1ccccc1)N[C@@H](CC(C)C)C(=O)OCC | 1.1
CCOC(=O)[C@H](CC(C)C)NP(=O)(CCCC(=O)N(C)OCc1ccc(-c2ccccc2)cc1)N[C@@H](CC(C)C)C(=O)OCC | 1.1
CCOC(=O)[C@H](CC(C)C)NP(=O)(CCCC(=O)N(C)OCc1ccccc1)N[C@@H](CC(C)C)C(=O)OCC | > 15
CCOC(=O)[C@H](CC(C)C)NP(=O)(CCCC(=O)N(C)OCCCc1ccccc1)N[C@@H](CC(C)C)C(=O)OCC | 2.6

// query May I ask what selectivity ratio has been recorded for CCOC(=O)[C@H](CC(C)C)NP(=O)(CCCC(=O)N(C)OCc1ccc(C(C)C)cc1)N[C@@H](CC(C)C)C(=O)OCC ?
// result 1.4

// query Reported selectivity ratio for CCOC(=O)[C@H](CC(C)C)NP(=O)(CCCC(=O)N(C)OCc1ccc(Cl)cc1)N[C@@H](CC(C)C)C(=O)OCC : what is it?
// result 2.6

// query Look up selectivity ratio: CCOC(=O)[C@H](CC(C)C)NP(=O)(CCCC(=O)N(C)OCc1ccc2ccccc2c1)N[C@@H](CC(C)C)C(=O)OCC
// result 0.88
